Assay: chemical genetic growth profiling, strain panel (AID 1159580);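 also: tested at 20 µM; growth read once vehicle control cultures reached saturation at 30 °C; 1 = growth at the plate median or of vehicle wells; lower values mean less growth of the strain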
Settings: S. cerevisiae deletion strains, growth OD, locus YGL253W, strain hxk2, active compounds read low
About 2,000 (36%) of roughly 5,500 compounds were called active. Another 18% or so got no clear call; they are omitted. The list shows a part of the results.
Recorded normalized growth for the following compounds
// no unit string in output, number only

Examples with their reported normalized growth follow.
COC(=O)CCC(C)[C@H]1CCC2C3C(C[C@H](O)[C@@]21C)[C@@]1(C)CC[C@@H](O)C[C@H]1C[C@H]3O (some centres not stated); 0.96
O=C(O)CCC(=O)Nc1ccc(S(=O)(=O)Nc2nccs2)cc1; 1
COC(=O)CCC(C)C1CCC2C3CC[C@@H]4C[C@H](O)CC[C@]4(C)C3C[C@H](O)[C@]12C (some centres not stated); 0.985
C=Cc1c(C)c2[n-]c1=Cc1[n-]c(c(CC)c1C)C=c1[n-]c3c(c1C)C(=O)C(C(=O)[O-])C=3c1[n-]c(c(C)c1CCC(=O)[O-])C=2.[Cu] (configuration not stated); 1.02
CC[C@H](CCC(C)[C@H]1CCC2C3CCC4C[C@@H](O)CC[C@]4(C)C3CC[C@@]21C)C(C)C (some centres not stated); 0.997

Supply recorded normalized growth for `Nc1ccncc1` here.
1

----------
Assay: chemical genetic growth profiling, strain panel (AID 1159580);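 also: tested at 20 µM; growth read once vehicle control cultures reached saturation at 30 °C; 1 = growth at the plate median or of vehicle wells; lower values mean less growth of the strain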
Details: S. cerevisiae deletion strains, growth OD, locus YEL061C, strain CIN8, active compounds read low
In all, about 5,500 compounds went through this assay and about 2,000 (36%) were called active. Inconclusive results (about 18%) are left out. The list shows a part of the results.
property_label: normalized growth
// no unit string in output, number only

CSC(=NC(=O)c1c(Cl)cccc1Cl)SC; 0.781
COc1ccc(CNc2ccccc2-c2nc3ccccc3[nH]2)cc1; 0.861
COC(=O)c1c(C)cc(OC(=O)c2c(C)cc(O)c(C=O)c2O)c(C)c1O; 0.971
C[C@]12C=CC(=O)C=C1CCC1C3C[C@@H](O)[C@](O)(C(=O)CO)[C@@]3(C)C[C@H](O)[C@@]12F (some centres not stated); 1.01
O=C(Nc1nncs1)c1ccncc1; 0.999
C=C1[C@H]2CC[C@@]3(C)[C@H](c4ccoc4)OC(=O)C[C@]13O[C@H]1C[C@H](O)C(C)(C)[C@H](CC(=O)OC)[C@]12C; 0.998

Supply recorded normalized growth for `O=C1/C(=C/c2ccc(Cl)cc2)COc2ccc(F)cc21` here.
0.934

Supply recorded normalized growth for `CO[C@]12C[C@@H](COC(=O)c3cncc(Br)c3)CN(C)[C@@H]1Cc1cn(C)c3cccc2c13` here.
0.997

Supply recorded normalized growth for `COc1cc(OC)c(OC)cc1C=O` here.
1.01

Supply recorded normalized growth for `O=C(CSc1nnc(NC(=O)c2cccc([N+](=O)[O-])c2)s1)Nc1ccc2c(c1)OCO2` here.
0.982

Supply recorded normalized growth for `CC(=O)Nc1ccc(S(=O)(=O)Nc2ncccn2)cc1` here.
1.01

----------
Recorded normalized growth for the following compounds
Test: chemical genetic growth profiling, strain panel (AID 1159580);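 also: tested at 20 µM; growth read once vehicle control cultures reached saturation at 30 °C; 1 = growth at the plate median or of vehicle wells; lower values mean less growth of the strain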
Conditions: S. cerevisiae deletion strains, growth OD, locus YHR094C, strain hxt1, active compounds read low
Out of some 5,500 compounds screened, about 2,000 (36%) were called active. Roughly 18% stayed inconclusive and do not appear here. This is one part of the list.
// no unit string in output, number only

C=C1C(C2(C)C=CC(=O)C(C)(C)C2CC(=O)OC)CC[C@@]2(C)[C@H](c3ccoc3)OC(=O)C3OC132 (some centres not stated); 0.976
CN[C@@H]1[C@H](OC2[C@H](O[C@H]3[C@H](O)[C@@H](O)[C@H](N=C(N)N)[C@@H](O)[C@@H]3N=C(N)N)O[C@@H](C)[C@]2(O)C=O)O[C@@H](CO)[C@H](O)[C@H]1O (some centres not stated); 1.02
COc1cc([C@H]2Oc3cc([C@H]4Oc5cc(O)cc(O)c5C(=O)[C@@H]4O)ccc3O[C@@H]2CO)ccc1O; 0.971
Cc1nc2sccn2c(=O)c1CCN1CCC(=C(c2ccc(F)cc2)c2ccc(F)cc2)CC1; 1
CC1=C2[C@H]3OC(=O)[C@@H](C)[C@@H]3CC[C@@]2(C)C=CC1=O; 1.03

Supply recorded normalized growth for CC(CN1c2ccccc2Sc2cccnc21)N(C)C (configuration not stated) here.
1

Supply recorded normalized growth for `N#C/C(=C\c1cccc(O)c1)C(=O)O` here.
0.993

Supply recorded normalized growth for `CC(=O)Nc1nnc(S(N)(=O)=O)s1` here.
0.985

Supply recorded normalized growth for C=C1C2CC[C@@]3(C)[C@H](c4ccoc4)OC(=O)C[C@]13O[C@H]1CC(=O)C(C)(C)C(CC(=O)OC)[C@@]21C (some centres not stated) here.
1.01

Supply recorded normalized growth for CC1CCC2(OC1)OC1CC3C4CCC5C[C@@H](O)CCC5(C)C4=CCC3(C)C1[C@@H]2C (some centres not stated) here.
0.973
